Values from PubChem BioAssay

# experiment-description: binders of probe aFGF2 on microarray, primary screen, stem cell growth factor project, biochemical, small-molecule microarray, fluorescence 635/667 (AID 1067);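 also: measures binding of biotinylated aFGF2 protein to printed compounds on slides; z-score merges feature fluorescence and signal-to-noise across triplicate slides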
# cond: higher = more signal
# reported composite z-score; entries follow
Answer with a bare number; do not write a unit.

For orientation, consider the following solved cases.
compound | measured-parameter | numeric-value
CC=CC(O)C1C=CC2C(=O)N(c3ccccc3)C(=O)C2N1Nc1ccccc1F (stereo not given) | composite z-score | 0.384
Cn1cccc1C(O)C1C=CC2C(=O)NC(=O)C2N1Nc1ccc(Cl)cc1Cl (stereo not given) | composite z-score | 0.167
CC(C)C(=C=CC[C@H](O)c1ccc(OCCO)cc1)C[C@H](O)c1ccccn1 | composite z-score | -0.129

Record `[N-]=[N+]=NCc1ccccc1C[C@@]1(C(=O)NCc2ccccc2)N=C(c2ccc(OCCCO)cc2)O[C@@H]1c1ccccc1N=[N+]=[N-]` . Reported composite z-score: 0.0075

Record `CCOC(=O)C1=CC[C@@H](c2cccc(Cl)c2)N(S(=O)(=O)c2ccc(C)cc2)C1` . Reported composite z-score: 0.067

Record `CCC[C@@H]1C[C@@]1(CCC)[C@@H](NC(=O)OCc1ccccc1)c1ccc(-c2ccccc2)cc1` . Reported composite z-score: 0.0572

Record `CCCCC=C[C@@H](NC(=O)c1ccc(-c2ccccc2)cc1)c1ccccc1` . Reported composite z-score: -0.021

Record `COCCOC(=O)N1C(=O)[C@@]2(c3cc(C#CC4=CCCCC4)ccc31)[C@H](c1ccccc1OCCO)N1[C@H](c3ccccc3)[C@H](c3ccccc3)OC(=O)[C@H]1[C@@H]2C(=O)Nc1nc2ccccc2s1` . Reported composite z-score: -0.0398

Record `O=C(NCC(F)(F)F)[C@@H]1c2ccccc2C(=O)N(Cc2ccc(OC(F)(F)F)cc2)[C@H]1c1ccc(CO)cc1` . Reported composite z-score: -0.0595

Record C=CCC(OC(C)=O)[C@@H]1[C@@H](N(Cc2ccc(-c3cccc(C(F)(F)F)c3)o2)C(=O)c2ccc(-c3ccccc3)cc2)c2cc(OCCCO)ccc2N1C(=O)c1ccc2ccccc2n1 (stereo not given in full) . Reported composite z-score: -0.0266

Record COc1cc2c(cc1O)C(C)N(Cc1ccc([N+](=O)[O-])o1)CC2 (stereo not given) . Reported composite z-score: -0.0138

Record C=CCC(OC(C)=O)[C@@H]1[C@@H](N(Cc2ccc(-c3cccc(C(F)(F)F)c3)o2)C(=O)c2ccc(C)cc2)c2cc(OCCCO)ccc2N1C(=O)c1ccc2ccccc2c1 (stereo not given in full) . Reported composite z-score: 0.0002
